assay: Effective concentration required to achieve 50% inhibition of HIV-1 LAI replication in human T4 lymphoblastoid CEM-SS cells.
pEC50: −log10 of the molar value.
measured.property: pEC50

(I) CCc1c(C)[nH]c(=O)c(NC(=O)CCCC(=O)OC)c1Cc1cc(C)cc(C)c1
(II) Cc1cn([C@H]2C[C@H](N=[N+]=[N-])[C@@H](CO)O2)c(=O)[nH]c1=O
(III) CCc1c(C)[nH]c(=O)c(NC(=O)CCCC(=O)O)c1Cc1cc(C)cc(C)c1
(IV) CCc1c(C)[nH]c(=O)c(NC(=O)CCCCCCCCC(=O)O)c1Cc1cc(C)cc(C)c1
Rank the compounds listed above in increasing order of pEC50. Lab note: record answer as labels in requested order. IV, I, III, II
(IV: 4.15, I: 4.62, III: 5.35, II: 8.70)

---

assay: Effective concentration required to achieve 50% inhibition of HIV-1 LAI replication in human T4 lymphoblastoid CEM-SS cells.
measured.property: EC50 (nM)

compound=CCc1c(C)[nH]c(=O)c(NC(=O)CCCCCCCCCN)c1Cc1cc(C)cc(C)c1 readout_units=nM number=58000
compound="NCCCCCCCCCCCCNc1ccn(C2CCC(CO)O2)c(=O)n1 (configuration not stated)" readout_units=nM number=7800
compound="CCc1c(Sc2cc(C)cc(C)c2)n(CCCCC(=O)NCCCCCCCCCCNC(=O)CCn2c(=O)c(C)cn(C3CC(N=[N+]=[N-])C(CO)O3)c2=O)c(=O)[nH]c1=O (configuration not stated)" readout_units=nM number=2800

(1) Nc1ccn([C@H]2CC[C@@H](CO)O2)c(=O)n1
(2) CCOC(=O)CCn1c(=O)c(C)cn(C2CC(N=[N+]=[N-])C(CO)O2)c1=O (configuration not stated)
(3) CCc1c(Sc2cc(C)cc(C)c2)n(CCCCC(=O)NCCCCCCCCCCNC(=O)CCc2cn(C3CC(N=[N+]=[N-])C(CO)O3)c(=O)[nH]c2=O)c(=O)[nH]c1=O (configuration not stated)
(4) CCc1c(C)[nH]c(=O)c(NC(=O)CNC(=O)CNC(=O)OC(C)(C)C)c1Cc1cc(C)cc(C)c1
(5) CCc1c(Sc2cc(C)cc(C)c2)n(CCCCC(=O)NCCCCCCCCCCCCNc2ccn(C3CCC(CO)O3)c(=O)n2)c(=O)[nH]c1=O (configuration not stated)
Sequence the entries by EC50, beginning with the highest number. Lab note: record answer as labels in requested order. 4, 3, 2, 5, 1
(4: 3200 nM, 3: 1700 nM, 2: 800 nM, 5: 430 nM, 1: 31 nM)

---

assay: Effective concentration required to achieve 50% inhibition of HIV-1 LAI replication in human T4 lymphoblastoid CEM-SS cells.
pEC50: −log10 of the molar value.
measured.property: pEC50

Worked cases, pEC50 given:
compound="[N-]=[N+]=NC1CC(n2cc(CCC(=O)NCCCCN)c(=O)[nH]c2=O)OC1CO (centres undefined)" measured_property=pEC50 result="< 4.00"
compound=CCc1c(C)[nH]c(=O)c(NC(=O)CCCCCCCCCNC(=O)OC(C)(C)C)c1Cc1cc(C)cc(C)c1 measured_property=pEC50 result="< 5.00"
compound="COC(=O)CCCNC(=O)CCc1cn(C2CC(N=[N+]=[N-])C(CO)O2)c(=O)[nH]c1=O (centres undefined)" measured_property=pEC50 result="< 4.00"

Switching to the query record.
May I ask what pEC50 has been recorded for CCc1c(C)[nH]c(=O)c(NC(=O)CCCCCCCCC(=O)OC)c1Cc1cc(C)cc(C)c1 ? < 5.00

Measured values drawn from BindingDB's records for doi:10.1021/jm991125l for this set.
